# Tested on: Resistant Enterococcus faecium and faecalis
# experiment.notes: MIC, standard broth micro-dilution assay, Resistant
# Type: cell-based
# study.conditions: geometric mean of 4-6 isolates
# Experimental: The antibacterial efficacy of the present compounds is illustrated by Table III. The minimal inhibitory concentrations (MICs) were determined using a standard broth micro-dilution assay.
Listing of recorded minimal inhibitory concentration (MIC), Resistant by entry.
Please respond with just the number, no unit label.

{"compound": "CC(C)CC(NCc1ccc(-c2ccccc2)cc1)C(=O)NC1C(=O)NC(CC(N)=O)C(=O)NC2C(=O)NC3C(=O)NC(C(=O)NC(C(=O)O)c4cc(O)cc(O)c4-c4cc3ccc4O)C(OC3CC(C)(N)C(O)C(C)O3)c3ccc(c(Cl)c3)Oc3cc2cc(c3OC2OC(CO)C(O)C(O)C2OC2CC(C)(N)C(O)C(C)O2)Oc2ccc(cc2Cl)C1O (centres unmarked)", "meas.value": 38}

Now for another entry.
Q: Give recorded minimal inhibitory concentration (MIC), Resistant with Resistant Enterococcus faecium and faecalis for the following compound: CSCCC(NC(=O)OC(C)(C)C)C(=O)NC1C(=O)NC(CC(N)=O)C(=O)NC2C(=O)NC3C(=O)NC(C(=O)NC(C(=O)O)c4cc(O)cc(O)c4-c4cc3ccc4O)C(OC3CC(C)(N)C(O)C(C)O3)c3ccc(c(Cl)c3)Oc3cc2cc(c3OC2OC(CO)C(O)C(O)C2OC2CC(C)(NCc3ccc(-c4ccccc4)cc3)C(O)C(C)O2)Oc2ccc(cc2Cl)C1O (centres unmarked)
Result: 27

These data points were gathered from patent US6670446B1.
